assay.details: Biodistribution experiments in normal mice after i.v. injection
Assay type: in vivo
experimental.conditions: male, ddY, mouse, in vivo, iv, total radioactivity, mice, i.v., 10 min after injection, mean (SD); read-out: Biodistribution of radioactivity, Heart
Where a SMILES comes first, the peptide text is derived from it. [ ]: non-standard residue; d: D form. The star is where a group is joined. DOTA = O=C(O)CN1CCN(CC(=O)O)CCN(CC(=O)*)CCN(CC(=O)O)CC1
experimental.readout: tissue uptake dose at 10 min (%ID)
Answers are plain numbers, in %ID.

Challenge: Can you look up the measured tissue uptake dose at 10 min of O=C(O)C[C@@H](NC(=O)[C@@H](CC(=O)O)NC(=O)[C@@H](CC(=O)O)NC(=O)[C@@H](CC(=O)O)NC(=O)[C@@H](CC(=O)O)NC(=O)[C@@H](CC(=O)O)NC(=O)[C@@H](CC(=O)O)NC(=O)[C@@H](CC(=O)O)NC(=O)[C@@H](CC(=O)O)NC(=O)[C@@H](CC(=O)O)NC(=O)[C@@H](CC(=O)O)NC(=O)CN1CCN(CC(=O)O)CCN(CC(=O)O)CCN(CC(=O)O)CC1)C(=O)O [^67Ga-DOTA-(D-Asp)11, metal not drawn] ({DOTA}-[dD][dD][dD][dD][dD][dD][dD][dD][dD][dD][dD]-OH) for me?
Response given: 0.65

* * *

assay.details: Biodistribution experiments in normal mice after i.v. injection
Assay type: in vivo
experimental.conditions: male, ddY, mouse, in vivo, iv, total radioactivity, Biodistribution of radioactivity, Pancreas
experimental.readout: tissue uptake dose at 3 h (%ID)
Numbers only, in %ID.

Challenge: Can you look up the measured tissue uptake dose at 3 h of O=C(O)CC[C@H](NC(=O)[C@H](CCC(=O)O)NC(=O)[C@H](CCC(=O)O)NC(=O)[C@H](CCC(=O)O)NC(=O)[C@H](CCC(=O)O)NC(=O)[C@H](CCC(=O)O)NC(=O)[C@H](CCC(=O)O)NC(=O)[C@H](CCC(=O)O)NC(=O)[C@H](CCC(=O)O)NC(=O)[C@H](CCC(=O)O)NC(=O)[C@H](CCC(=O)O)NC(=O)[C@H](CCC(=O)O)NC(=O)[C@H](CCC(=O)O)NC(=O)[C@H](CCC(=O)O)NC(=O)CN1CCN(CC(=O)O)CCN(CC(=O)O)CCN(CC(=O)O)CC1)C(=O)O [^67Ga-DOTA-(L-Glu)14, metal not drawn] for me?
Response given: 0.08

* * *

assay.details: Biodistribution experiments in normal mice after i.v. injection
Assay type: in vivo
experimental.conditions: male, ddY, mouse, in vivo, iv, total radioactivity, Biodistribution of radioactivity, Stomach
experimental.readout: tissue uptake dose at 3 h

Challenge: Can you look up the measured tissue uptake dose at 3 h of O=C(O)CC[C@H](NC(=O)[C@H](CCC(=O)O)NC(=O)[C@H](CCC(=O)O)NC(=O)[C@H](CCC(=O)O)NC(=O)[C@H](CCC(=O)O)NC(=O)[C@H](CCC(=O)O)NC(=O)[C@H](CCC(=O)O)NC(=O)[C@H](CCC(=O)O)NC(=O)[C@H](CCC(=O)O)NC(=O)[C@H](CCC(=O)O)NC(=O)[C@H](CCC(=O)O)NC(=O)[C@H](CCC(=O)O)NC(=O)[C@H](CCC(=O)O)NC(=O)[C@H](CCC(=O)O)NC(=O)CN1CCN(CC(=O)O)CCN(CC(=O)O)CCN(CC(=O)O)CC1)C(=O)O [^67Ga-DOTA-(L-Glu)14, metal not drawn] for me?
Response given: 0.07 %ID
